Biological target: T1, human LILRB3 (human, UniProt O75022 24-631)
T1 construct: whole, on cells; also called hLILRB3
T1 sequence (O75022 24-631): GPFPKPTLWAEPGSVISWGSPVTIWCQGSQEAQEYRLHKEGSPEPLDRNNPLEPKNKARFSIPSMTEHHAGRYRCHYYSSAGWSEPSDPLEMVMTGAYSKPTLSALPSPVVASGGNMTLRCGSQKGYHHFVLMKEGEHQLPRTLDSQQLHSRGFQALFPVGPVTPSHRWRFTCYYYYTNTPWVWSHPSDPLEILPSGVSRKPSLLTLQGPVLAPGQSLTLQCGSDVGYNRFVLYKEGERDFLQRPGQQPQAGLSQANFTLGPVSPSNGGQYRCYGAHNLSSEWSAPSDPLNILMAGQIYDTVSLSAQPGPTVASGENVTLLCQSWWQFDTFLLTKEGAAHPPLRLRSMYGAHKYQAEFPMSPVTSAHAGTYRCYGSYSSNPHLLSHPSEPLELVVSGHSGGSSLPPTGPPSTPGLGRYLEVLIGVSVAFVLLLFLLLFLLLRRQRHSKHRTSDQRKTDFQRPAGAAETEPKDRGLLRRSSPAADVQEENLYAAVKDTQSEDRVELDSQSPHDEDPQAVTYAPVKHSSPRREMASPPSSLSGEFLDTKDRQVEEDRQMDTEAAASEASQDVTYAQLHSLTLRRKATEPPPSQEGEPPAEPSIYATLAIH
Experiment: FACS, 293F-hLILRB3 cells
MEASURE: MFI (MFI)
# output: bare number, implied unit MFI

For this binder ( 25-G9-G4-C12 (antibody, V domains shown, mouse monoclonal hybridoma antibody) VH: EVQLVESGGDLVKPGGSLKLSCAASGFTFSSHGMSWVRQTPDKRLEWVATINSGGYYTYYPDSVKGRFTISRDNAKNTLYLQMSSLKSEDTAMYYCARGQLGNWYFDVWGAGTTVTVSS VL: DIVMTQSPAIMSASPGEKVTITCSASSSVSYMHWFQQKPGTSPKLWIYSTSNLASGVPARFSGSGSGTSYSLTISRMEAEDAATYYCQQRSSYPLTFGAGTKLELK ), measured MFI is 25.2
